Recorded values, source patent US9234000B2.

# target_or_system: Human KLK1 (Homo sapiens (Human))
# Sequence (P06870 25-262): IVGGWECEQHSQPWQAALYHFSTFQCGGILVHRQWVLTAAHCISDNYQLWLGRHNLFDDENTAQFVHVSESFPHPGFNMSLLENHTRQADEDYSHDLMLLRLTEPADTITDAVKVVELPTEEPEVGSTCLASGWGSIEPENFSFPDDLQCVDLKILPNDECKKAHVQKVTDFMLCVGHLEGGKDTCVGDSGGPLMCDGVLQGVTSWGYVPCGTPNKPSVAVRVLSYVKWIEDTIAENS
# experiment: Determination of the IC50 for KLK1
# Type: biochemical
# protocol_conditions: Human KLK1, 37° C., substrate H-DVal-Leu-Arg-AFC; Table 12
Can you tell me IC50 for the items I'm about to list?

Input line: Could you share which IC50 value was measured for `CN[C@H](CC1CCCCC1)C(=O)N[C@@H](Cc1ccc(Cl)c(Cl)c1)C(=O)NCc1ccc(CN)c(F)c1` ?
Output line: 2.5 µM

Input line: Could you share which IC50 value was measured for `CCOc1ccc(C[C@@H](N)C(=O)N(C)[C@@H](Cc2ccccc2)C(=O)NCc2ccc(CN)cc2)cc1` ?
Output line: 6.3 µM

Input line: Could you share which IC50 value was measured for `CCOc1ccc(C[C@@H](NC(=O)CC)C(=O)N(C)[C@@H](Cc2ccccc2)C(=O)NCc2ccc(CN)cc2)cc1` ?
Output line: > 10 µM

Input line: Could you share which IC50 value was measured for `CCOc1ccc(C[C@@H](NC(=O)CC)C(=O)N(C)[C@@H](Cc2ccccc2)C(=O)NCc2ccc(CN)c(F)c2)cc1` ?
Output line: > 10 µM

Input line: Could you share which IC50 value was measured for `CCOc1ccc(C[C@@H](NC(=O)C(C)C)C(=O)N(C)[C@@H](Cc2ccccc2)C(=O)NCc2ccc(CN)cc2)cc1` ?
Output line: > 10 µM

Input line: Could you share which IC50 value was measured for `NCc1ccc(CNC(=O)[C@H](Cc2ccc(Cl)c(Cl)c2)NC(=O)[C@H](N)Cc2ccc(C(F)(F)F)cc2)cc1` ?
Output line: 1.6 µM

Input line: Could you share which IC50 value was measured for `CCOc1ccc(C[C@@H](NC(=O)CC)C(=O)N[C@@H](Cc2ccccc2)C(=O)NCc2ccc(CN)cc2)cc1` ?
Output line: > 1 µM

###

Can you tell me IC50 for the items I'm about to list?
# target_or_system: Human plasma kallikrein (Homo sapiens (Human), UniProt P03952)
# Sequence (P03952 391-638): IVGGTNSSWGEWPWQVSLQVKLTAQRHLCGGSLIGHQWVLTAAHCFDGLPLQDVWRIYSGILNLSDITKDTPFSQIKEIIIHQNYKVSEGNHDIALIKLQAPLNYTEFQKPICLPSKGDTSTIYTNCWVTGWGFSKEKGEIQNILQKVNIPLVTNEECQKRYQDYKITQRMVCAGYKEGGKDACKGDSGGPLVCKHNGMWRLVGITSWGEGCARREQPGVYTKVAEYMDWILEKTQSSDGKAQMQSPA
# Sequence (P03952 20-390 partner): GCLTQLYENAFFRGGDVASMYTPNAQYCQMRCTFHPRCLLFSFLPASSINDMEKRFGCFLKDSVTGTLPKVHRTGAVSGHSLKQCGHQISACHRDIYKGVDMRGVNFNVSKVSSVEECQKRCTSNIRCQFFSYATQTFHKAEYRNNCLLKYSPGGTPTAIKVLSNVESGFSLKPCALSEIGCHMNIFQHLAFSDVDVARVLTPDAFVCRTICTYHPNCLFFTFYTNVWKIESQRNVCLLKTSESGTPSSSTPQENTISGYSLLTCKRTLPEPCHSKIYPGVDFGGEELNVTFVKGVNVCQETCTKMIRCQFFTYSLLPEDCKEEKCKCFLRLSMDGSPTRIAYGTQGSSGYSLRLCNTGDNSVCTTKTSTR
# experiment: Determination of the IC50 for plasma kallikrein
# Format: biochemical
# protocol_conditions: 37° C., substrate H-DPro-Phe-Arg-AFC, read-out: IC50 (human PKal)
Expressed in nM, but write only the number.

Input line: Could you share which IC50 value was measured for CCOc1ccc(C[C@@H](NC(=O)c2ccccc2)C(=O)N[C@@H](Cc2ccc(F)cc2)C(=O)NCc2ccc(CN)cc2)cc1 [Example 143] ?
Output line: 83

Input line: Could you share which IC50 value was measured for CCOc1ccc(C[C@@H](NC(=O)CCCc2ccccc2)C(=O)N[C@@H](Cc2ccccc2)C(=O)NCc2ccc(CN)cc2)cc1 [Example 87] ?
Output line: 755

Input line: Could you share which IC50 value was measured for CCOc1ccc(C[C@@H](NC(=O)c2ccccc2)C(=O)N[C@@H](Cc2ccccc2)C(=O)NCc2ccc(CN)c(C(F)(F)F)c2)cc1 [Example 156] ?
Output line: 1080

Input line: Could you share which IC50 value was measured for CCOc1ccc(C[C@@H](NC(=O)c2ccccc2)C(=O)N[C@@H](Cc2ccccc2)C(=O)NCc2ccc(CN)c(F)c2)cc1 [Example 154] ?
Output line: 21

Input line: Could you share which IC50 value was measured for CCOc1ccc(C[C@@H](NC(=O)c2sccc2C)C(=O)N[C@@H](Cc2ccccc2)C(=O)NCc2ccc(CN)cc2)cc1 [Example 119] ?
Output line: 15

Input line: Could you share which IC50 value was measured for CCCCCC(=O)N[C@H](Cc1ccc(OCC)cc1)C(=O)N[C@@H](Cc1ccccc1)C(=O)NCc1ccc(CN)cc1 [Example 76] ?
Output line: 452
